Assay: Epitope mapping: body weight and food intake in female C57BL/6J ob/ob mice, 7 daily ip injections
Format: in vivo, mouse
Conditions: 1 mg/day ip, 7 days
Procedure: Animal procedures. Feeding and weighing schedules, as well as peptide administration protocols, are as described in EXAMPLE 8, supra. Statistical analysis. Changes in body weight and differences in food intake between peptide-treated and vehicle-injected control mice were analyzed by analysis of variance (ANOVA) and considered significant when P<0.05. […]
Ends that are not written are not given here.
RECORDED ENDPOINT: Percent heavier (+) or lighter (−) than initial weight

SUBSTANCE: T K T L I K T I V T R I N D I (TKTLIKTIVTRINDI) [LEP(31–45)]
TEST VALUE: +26.6%
--
SUBSTANCE: S Q N V L Q I A N D L E N L R (SQNVLQIANDLENLR; not fully specified (N-terminus)) [LEP(91–105)]
TEST VALUE: +18.6%
--
SUBSTANCE: D I L Q Q L D V S P E C (DILQQLDVSPEC; not fully specified (N-terminus)) [LEP(156–167)]
TEST VALUE: +22.6%
--
SUBSTANCE: D F I P G L H P I L S L S K M (DFIPGLHPILSLSKM) [LEP(61–75)]
TEST VALUE: +24.0%
--
SUBSTANCE: A V P I Q K V Q D D T K T L I (AVPIQKVQDDTKTLI) [LEP(21–35)]
TEST VALUE: +24.0%

Exam item: Which Percent heavier (+) or lighter (−) than initial weight reading was recorded for the substance D L L H L L A F S K S C S L P (DLLHLLAFSKSCSLP) [LEP(106–120)] ?
Marked response: −12.0%

Exam item: Which Percent heavier (+) or lighter (−) than initial weight reading was recorded for the substance E A S L Y S T E V V A L S R L (EASLYSTEVVALSRL; not fully specified (N-terminus)) [LEP(136–150)] ?
Marked response: +25.6%

Exam item: Which Percent heavier (+) or lighter (−) than initial weight reading was recorded for the substance A L S R L Q G S L Q D I L Q Q (ALSRLQGSLQDILQQ) [LEP(146–160)] ?
Marked response: +28.0%

----------
Experiment: Epitope mapping: body weight and food intake in female C57BL/6J ob/ob mice, 7 daily ip injections
Type: in vivo, mouse
Conditions: 1 mg/day ip, 7 days
RECORDED ENDPOINT: Cumulative food intake (gm/mouse)
API: value field is a number in gm/mouse; no unit string.

SUBSTANCE: T K T L I K T I V T R I N D I (TKTLIKTIVTRINDI) [LEP(31–45)]
Cumulative food intake (gm/mouse): 39.5

Could you now consider this next substance?
Exam item: Which Cumulative food intake reading was recorded for the substance V Y Q Q V L T S L P S Q N V L (VYQQVLTSLPSQNVL) [LEP(81–95)] ?
Marked response: 39.5

----------
Test: Epitope mapping: body weight and food intake in female C57BL/6J ob/ob mice, 7 daily ip injections
Format: in vivo, mouse
Conditions: 1 mg/day ip, 7 days
Description: Animal procedures. Feeding and weighing schedules, as well as peptide administration protocols, are as described in EXAMPLE 8, supra. Statistical analysis. Changes in body weight and differences in food intake between peptide-treated and vehicle-injected control mice were analyzed by analysis of variance (ANOVA) and considered significant when P<0.05. […]
Ends that are not written are not given here.
RECORDED ENDPOINT: Cumulative food intake (gm/mouse)
API: value field is a number in gm/mouse; no unit string.

SUBSTANCE: D I L Q Q L D V S P E C (DILQQLDVSPEC; not fully specified (N-terminus)) [LEP(156–167)]
Cumulative food intake (gm/mouse): 40.3
--
SUBSTANCE: E A S L Y S T E V V A L S R L (EASLYSTEVVALSRL; not fully specified (N-terminus)) [LEP(136–150)]
Cumulative food intake (gm/mouse): 38.7
--
SUBSTANCE: V S A K Q R V T G L D F I P G (VSAKQRVTGLDFIPG; not fully specified) [LEP(51–65)]
Cumulative food intake (gm/mouse): 40.7

Could you now consider this next substance?
Exam item: Which Cumulative food intake reading was recorded for the substance A L S R L Q G S L Q D I L Q Q (ALSRLQGSLQDILQQ) [LEP(146–160)] ?
Marked response: 40.5

----------
Test: Epitope mapping: body weight and food intake in female C57BL/6J ob/ob mice, 7 daily ip injections
Assay type: in vivo, mouse
Conditions: 1 mg/day ip, 7 days
Ends that are not written are not given here.
RECORDED ENDPOINT: Percent heavier (+) or lighter (−) than initial weight

Example results:
SUBSTANCE: Q K P E S L D G V L E A S L Y (QKPESLDGVLEASLY; not fully specified (N-terminus)) [LEP(126–140)]
TEST VALUE: −10.2%
--
SUBSTANCE: V S A K Q R V T G L D F I P G (VSAKQRVTGLDFIPG; not fully specified) [LEP(51–65)]
TEST VALUE: +25.0%
--
SUBSTANCE: S L S K M D Q T L A V Y Q Q V (SLSKMDQTLAVYQQV) [LEP(71–85)]
TEST VALUE: +20.0%
--
SUBSTANCE: V Y Q Q V L T S L P S Q N V L (VYQQVLTSLPSQNVL) [LEP(81–95)]
TEST VALUE: +26.0%

Could you now consider this next substance?
Exam item: Which Percent heavier (+) or lighter (−) than initial weight reading was recorded for the substance R I N D I S H T Q S V S A K Q (RINDISHTQSVSAKQ) [LEP(41–55)] ?
Marked response: +27.6%

----------
Each entry below carries its recorded Cumulative food intake.
Assay: Epitope mapping: body weight and food intake in female C57BL/6J ob/ob mice, 7 daily ip injections
Format: in vivo, mouse
Conditions: 1 mg/day ip, 7 days
API: value field is a number in gm/mouse; no unit string.

Example results:
SUBSTANCE: D F I P G L H P I L S L S K M (DFIPGLHPILSLSKM) [LEP(61–75)]
UNIT: gm/mouse
Cumulative food intake: 44.6

SUBSTANCE: R I N D I S H T Q S V S A K Q (RINDISHTQSVSAKQ) [LEP(41–55)]
UNIT: gm/mouse
Cumulative food intake: 39.4

Could you now consider this next substance?
Exam item: Which Cumulative food intake reading was recorded for the substance A V P I Q K V Q D D T K T L I (AVPIQKVQDDTKTLI) [LEP(21–35)] ?
Marked response: 39.1

----------
Test: Epitope mapping: body weight and food intake in female C57BL/6J ob/ob mice, 7 daily ip injections
Format: in vivo, mouse
Settings: 1 mg/day ip, 7 days
Marks after values point to notes of the source that are not given here. Ends that are not written are not given here.
RECORDED ENDPOINT: Cumulative food intake

Example results:
SUBSTANCE: S L S K M D Q T L A V Y Q Q V (SLSKMDQTLAVYQQV) [LEP(71–85)]
RECORDED ENDPOINT: Cumulative food intake
TEST VALUE: 35.5 ± 1.1^b gm/mouse
//
SUBSTANCE: D L L H L L A F S K S C S L P (DLLHLLAFSKSCSLP) [LEP(106–120)]
RECORDED ENDPOINT: Cumulative food intake
TEST VALUE: 34.5 ± 1.1^b gm/mouse

Could you now consider this next substance?
Exam item: Which Cumulative food intake reading was recorded for the substance Q K P E S L D G V L E A S L Y (QKPESLDGVLEASLY; not fully specified (N-terminus)) [LEP(126–140)] ?
Marked response: 34.7 ± 1.3^b gm/mouse
